The values you see were collected from ChEMBL document CHEMBL4342442.

Here, each record is paired with measured zone of inhibition at 200 µg/mL data.
Tested on: Bacillus subtilis
Assay Procedure: Antibacterial activity against Bacillus subtilis MTCC 441 assessed as diameter of zone of inhibition at 200 ug/ml after 24 hrs by agar well diffusion method
Assay type: functional
Applied Conditions: MTCC 441, 24 h, read-out: DIZ
// units = mm; emit number, no label

Worked set:
1) CC(=O)c1c(O)c(C)c(O)c2c1OC1=CC(=O)/C(=C(/C)NCc3cn(CC(=O)c4c(F)c(F)c(F)c(F)c4F)nn3)C(=O)C12C (centres undefined): 12
2) CC(=O)c1c(O)c(C)c(O)c2c1OC1=CC(=O)/C(=C(/C)NCc3cn(CC(=O)N4CCOCC4)nn3)C(=O)C12C (centres undefined): 13
3) COc1ccccc1N1CCN(C(=O)Cn2cc(CN/C(C)=C3\C(=O)C=C4Oc5c(C(C)=O)c(O)c(C)c(O)c5C4(C)C3=O)nn2)CC1 (centres undefined): 10

Now turn to the next molecule.
Q: Request the reported zone of inhibition at 200 µg/mL associated with CC(=O)c1c(O)c(C)c(O)c2c1OC1=CC(=O)/C(=C(/C)NCc3cn(CC(=O)c4ccc5ccccc5c4)nn3)C(=O)C12C (centres undefined)
Ans: 11
